The values you see were collected from PubChem BioAssay (NCI).

test system: UACC-62 melanoma; test: NCI tumour cell line growth inhibition, 48 h
REPORTED PROPERTY: GI50

>  <STRUCTURE STRING>
COc1cc(Nc2ncc3c(C)nc(-c4cccc(Oc5ccccc5)c4)n3n2)cc(OC)c1OC

>  <GI50>
3.3 µM

$$$$
>  <STRUCTURE STRING>
O[C@@H]1CCCN1Cc1cc2cc3c(cc2c2cc(OCc4ccccc4)ccc12)OCO3

>  <GI50>
1.97 µM

$$$$
>  <STRUCTURE STRING>
O=c1[nH]ccc2nc(-c3ccc(CN4CCC(c5nc(-c6ccccn6)n[nH]5)CC4)cc3)c(-c3ccccc3)cc12

>  <GI50>
16.3 µM

$$$$
>  <STRUCTURE STRING>
CC1(C)N=C(N)N=C(N)N1c1ccc(OCC(=O)N2CCOCC2)c(Cl)c1

>  <GI50>
4.74 µM

$$$$
>  <STRUCTURE STRING>
COc1cc2c3c(n(CCCNC(=O)OCC4c5ccccc5-c5ccccc54)c(=O)c2cc1OC)-c1cc2c(cc1C3=O)OCO2

>  <GI50>
33.4 µM

$$$$

Hey, can you go through the list below and give me GI50 for every item?
1. CCCCCCCCCCCCSC(=NC)NC
2. COC(=O)c1oc2c(O)c(OC)c(Br)cc2c1C

Result block:
1: 1.68 µM; 2: 14.7 µM
